The entries below are paired with their reported CC50 at 36 h.
# assay_method_text: XTT cell proliferation assay in Vero cells
# Format: cell-based, African green monkey
# assay_context: African green monkey; non-infected Vero cells, 36 h post-treatment
readout_type: CC50 at 36 h

> print(dat)
                                   compound  observed.result
1  NCC(=O)Nc1ccc(-n2nc(C(F)(F)F)cc2-c2ccc3c(ccc4ccccc43)c2)cc1 [OSU-03012]           132 µM
2  CCCCCC[C@H]1C(=O)O[C@H](C)[C@H](NC(=O)c2cccc(NC=O)c2O)C(=O)O[C@@H](C)[C@@H]1OC(=O)CC(C)C [Antimycin A]        > 1350 µM

###

# assay_method_text: MTT cell viability in A549 cells
# Assay type: cell-based, human
# assay_context: human, highest concentration used 50.00 µM, sentence also cites [17]
Listing of recorded CC50 by entry.
readout_type: CC50

> print(dat)
                                   molecule  observed.result
1  O=c1cnn([C@@H]2O[C@H](CO)[C@@H](O)[C@H]2O)c(=O)[nH]1          > 50 µM
2  NC(=O)c1[nH]nc([C@@H]2O[C@H](CO)[C@@H](O)[C@H]2O)c1O          > 50 µM
3  O=C(O)C1=CC(=C(c2ccc(O)c(C(=O)O)c2)c2ccc(O)c(C(=O)O)c2)C=CC1=O          > 50 µM

###

# Tested on: ZIKV PRVABC59 strain
# assay_method_text: Viral inhibition assay, post-treatment, new World strain, Vero cells
# Format: cell-based, Zika virus
# assay_context: Zika virus; new World ZIKV PRVABC59, Vero cells, post-treatment, 48 h
Counter-ions that a name gives are not always drawn.
readout_type: log10 of EC50 (log10 of the value in nM)

> print(dat)
                                    compound   readout.type  observed.result
 1  COc1c(C)c2c(c(O)c1C/C=C(\C)CCC(=O)O)C(=O)OC2  log10 of EC50             2.34
 2  CCCCCC[C@H]1C(=O)O[C@H](C)[C@H](NC(=O)c2cccc(NC=O)c2O)C(=O)O[C@@H](C)[C@@H]1OC(=O)CC(C)C [Antimycin A]  log10 of EC50             3.86
 3  O=c1cnn([C@@H]2O[C@H](CO)[C@@H](O)[C@H]2O)c(=O)[nH]1  log10 of EC50             3.16
 4  Cc1c(-c2ccc(-c3ccccc3F)cc2)nc2ccc(F)cc2c1C(=O)O [Brequinar, Brequinar sodium salt hydrate]  log10 of EC50             1.90
 5  COc1c(C)c2c(c(O)c1C/C=C(\C)CCC(=O)OCCN1CCOCC1)C(=O)OC2 [Mycophenolate mofetil]  log10 of EC50             2.08
 6  NCC(=O)Nc1ccc(-n2nc(C(F)(F)F)cc2-c2ccc3c(ccc4ccccc43)c2)cc1  log10 of EC50             3.23
 7  COC1=CC(c2cc3ccccc3[nH]2)=N/C1=C\c1[nH]c(C)cc1C [Obatoclax, Obatoclax mesylate]  log10 of EC50             2.61
 8  O=C(O)C1=CC(=C(c2ccc(O)c(C(=O)O)c2)c2ccc(O)c(C(=O)O)c2)C=CC1=O  log10 of EC50             3.68
 9  CC[C@H](CC#N)OC(=O)N[C@@H](C)c1cccc(NC(=O)Nc2ccc(-c3cnco3)c(OC)c2)c1  log10 of EC50             2.58
10  NC(=O)c1[nH]nc([C@@H]2O[C@H](CO)[C@@H](O)[C@H]2O)c1O  log10 of EC50             2.98

###

# System: ZIKV Paraiba/2015
# assay_method_text: Viral inhibition assay, co-treatment, Vero cells
# Format: cell-based, Zika virus
# assay_context: co-treatment, Paraiba/2015, Vero
Counter-ions that a name gives are not always drawn.
readout_type: inhibitor category based on SI-MTT and SI-XTT

> print(dat)
                                   compound  observed.result
1  CC[C@H](CC#N)OC(=O)N[C@@H](C)c1cccc(NC(=O)Nc2ccc(-c3cnco3)c(OC)c2)c1         moderate
2  O=C(O)C1=CC(=C(c2ccc(O)c(C(=O)O)c2)c2ccc(O)c(C(=O)O)c2)C=CC1=O           potent
3  NC(=O)c1[nH]nc([C@@H]2O[C@H](CO)[C@@H](O)[C@H]2O)c1O             weak
4  Cc1c(-c2ccc(-c3ccccc3F)cc2)nc2ccc(F)cc2c1C(=O)O [Brequinar, Brequinar sodium salt hydrate]         moderate
5  COc1c(C)c2c(c(O)c1C/C=C(\C)CCC(=O)O)C(=O)OC2             weak
6  COc1c(C)c2c(c(O)c1C/C=C(\C)CCC(=O)OCCN1CCOCC1)C(=O)OC2 [Mycophenolate mofetil]           potent
7  O=c1cnn([C@@H]2O[C@H](CO)[C@@H](O)[C@H]2O)c(=O)[nH]1             weak

###

# System: ZIKV PRVABC59 strain
# assay_method_text: Viral inhibition assay, post-treatment, new World strain, Vero cells
# Format: cell-based, Zika virus
# assay_context: ZIKV PRVABC59, Vero
Counter-ions that a name gives are not always drawn.
readout_type: inhibitor category based on SI-MTT and SI-XTT

> print(dat)
                                   molecule                system  observed.result
1  COc1c(C)c2c(c(O)c1C/C=C(\C)CCC(=O)O)C(=O)OC2  ZIKV PRVABC59 strain           potent
2  CC[C@H](CC#N)OC(=O)N[C@@H](C)c1cccc(NC(=O)Nc2ccc(-c3cnco3)c(OC)c2)c1  ZIKV PRVABC59 strain           potent
3  NC(=O)c1[nH]nc([C@@H]2O[C@H](CO)[C@@H](O)[C@H]2O)c1O  ZIKV PRVABC59 strain         moderate
4  CCCCCC[C@H]1C(=O)O[C@H](C)[C@H](NC(=O)c2cccc(NC=O)c2O)C(=O)O[C@@H](C)[C@@H]1OC(=O)CC(C)C [Antimycin A]  ZIKV PRVABC59 strain             weak
5  COc1c(C)c2c(c(O)c1C/C=C(\C)CCC(=O)OCCN1CCOCC1)C(=O)OC2 [Mycophenolate mofetil]  ZIKV PRVABC59 strain           potent
6  Cc1c(-c2ccc(-c3ccccc3F)cc2)nc2ccc(F)cc2c1C(=O)O [Brequinar, Brequinar sodium salt hydrate]  ZIKV PRVABC59 strain           potent
7  O=c1cnn([C@@H]2O[C@H](CO)[C@@H](O)[C@H]2O)c(=O)[nH]1  ZIKV PRVABC59 strain         moderate

###

# Test system: ZIKV Paraiba/2015
# assay_method_text: Viral inhibition assay, co-treatment, Vero cells
# Assay type: cell-based, Zika virus
# assay_context: co-treatment, Paraiba/2015, Vero
Counter-ions that a name gives are not always drawn.
readout_type: inhibitor category based on SI-MTT

> print(dat)
                                   molecule  observed.result
1  NC(=O)c1[nH]nc([C@@H]2O[C@H](CO)[C@@H](O)[C@H]2O)c1O             weak
2  NCC(=O)Nc1ccc(-n2nc(C(F)(F)F)cc2-c2ccc3c(ccc4ccccc43)c2)cc1             weak
3  COc1c(C)c2c(c(O)c1C/C=C(\C)CCC(=O)OCCN1CCOCC1)C(=O)OC2 [Mycophenolate mofetil]           Potent
4  COC1=CC(c2cc3ccccc3[nH]2)=N/C1=C\c1[nH]c(C)cc1C [Obatoclax, Obatoclax mesylate]           Potent
5  O=c1cnn([C@@H]2O[C@H](CO)[C@@H](O)[C@H]2O)c(=O)[nH]1             weak
6  COc1c(C)c2c(c(O)c1C/C=C(\C)CCC(=O)O)C(=O)OC2             weak

###

# assay_method_text: MTT cell viability assay in Vero cells
# Assay type: cell-based, African green monkey
# assay_context: African green monkey; non-infected Vero cells, 36 h post-treatment
Below: a set of entries, each annotated with reported CC50 at 36 h.
readout_type: CC50 at 36 h (µM)

> print(dat)
                                   molecule  readout.type  display.unit  observed.result
1  CCCCCC[C@H]1C(=O)O[C@H](C)[C@H](NC(=O)c2cccc(NC=O)c2O)C(=O)O[C@@H](C)[C@@H]1OC(=O)CC(C)C [Antimycin A]  CC50 at 36 h            µM             51.3
2  NCC(=O)Nc1ccc(-n2nc(C(F)(F)F)cc2-c2ccc3c(ccc4ccccc43)c2)cc1 [OSU-03012]  CC50 at 36 h            µM             6.39
